- ASSAYED TARGET: T1, human serum albumin (human, UniProt P02768 25-609)
- T1 construct: also called HSA
- T1 sequence (P02768 25-609 limits assumed): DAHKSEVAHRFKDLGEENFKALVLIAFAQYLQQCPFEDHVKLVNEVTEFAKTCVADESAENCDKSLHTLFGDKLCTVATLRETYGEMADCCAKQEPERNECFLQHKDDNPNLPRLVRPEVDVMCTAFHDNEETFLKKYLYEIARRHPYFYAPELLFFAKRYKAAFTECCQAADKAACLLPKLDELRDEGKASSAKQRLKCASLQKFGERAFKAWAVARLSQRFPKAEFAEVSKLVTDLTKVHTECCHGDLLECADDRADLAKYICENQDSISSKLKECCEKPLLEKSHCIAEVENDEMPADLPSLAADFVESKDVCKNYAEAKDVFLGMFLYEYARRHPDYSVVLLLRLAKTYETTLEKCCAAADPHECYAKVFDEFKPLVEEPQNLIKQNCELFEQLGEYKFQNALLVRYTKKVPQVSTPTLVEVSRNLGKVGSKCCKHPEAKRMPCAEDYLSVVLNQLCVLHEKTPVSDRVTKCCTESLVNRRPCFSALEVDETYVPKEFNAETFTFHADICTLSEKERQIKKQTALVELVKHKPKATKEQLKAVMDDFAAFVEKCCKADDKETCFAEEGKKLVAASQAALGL
- TEST: ELISA
MEASURED PARAMETER: binding result

BINDER | VALUE REPORTED
AB134 (antibody, human IgG1, V domains shown, Tested as purified recombinant whole human IgG1 (Expi293F); also called 06-AB-134; anti-whole cell mAb) VH: QLQLQESGGGLVQPGGSLRLSCVVSGFTFSSHAMSWVRQAPGKGLEWVSSISISGGDTFYADSVRGRFTIFRDNSKNTVYLQMNSLRAEDTAVYYCATETSPNDYWGQGTLVSVSS VL: SYELTQPSSLTVSPGGTVTLTCGLSSGAVTSGHYPYWFQQKPGQAPKTLIFDTSRKHSWTPARFSGSLLGGKAALTLSGAQPEDDADYYCLLACNGACVFGGGTKLTVL | no binding
AB139 (antibody, human IgG1, V domains shown, Tested as purified recombinant whole human IgG1 (Expi293F); also called 06-AB-139; anti-whole cell mAb) VH: EVQLVESGGGLVQPGGSLRVSCAASGFTLNTYWMHWVRQAPGKGLVWVSRINEDGTTISYADSVRGRFTISRDNAENTLYLQMHSLRAEDTGVYYCARDFTGPFDSWGQGTLVSVSS VL: QSVLTQPPSVSGTPGQRVTISCSGSNSNVGRDYVSWYQQVPGTAPKLLIYKNNRRPSGVPDRFSGSKSGTSASLAISGLRSEDDGDYYCIVWDGSLSGYVFGTGTKVTVL | no binding

The reported measurements were obtained from patent US20250270300A1.
